Target: kinase domain protein of RC kinase (Homo sapiens, UniProt Q56UN5)
Sequence (Q56UN5 1061-1324 limits assumed): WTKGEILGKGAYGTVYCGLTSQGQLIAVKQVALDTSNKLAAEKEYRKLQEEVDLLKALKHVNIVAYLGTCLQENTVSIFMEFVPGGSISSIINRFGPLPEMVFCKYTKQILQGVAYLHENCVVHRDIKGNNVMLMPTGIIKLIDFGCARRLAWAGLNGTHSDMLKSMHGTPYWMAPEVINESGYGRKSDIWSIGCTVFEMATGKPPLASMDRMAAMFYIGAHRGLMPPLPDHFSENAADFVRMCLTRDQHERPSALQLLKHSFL
Assay: Enzymatic assay for kinase inhibitory activity (Crebtide substrate, LANCE readout), kinase domain protein
Assay type: biochemical
Conditions: test compound 1 μM, ATP 1 μM, Crebtide 50 nM
TEST_READOUT: inhibition at 1 µM

{"CHEMICAL_SMILES": "NC(=O)c1c(Nc2cccc(Cl)c2)n[nH]c1NCc1c[nH]nc1-c1ccc(F)cc1", "inhibition at 1 µM": "≤ 5%"}
{"CHEMICAL_SMILES": "N#Cc1c(Nc2cccc(Cl)c2)n[nH]c1NCc1ccc(-c2ccc(Cl)cc2)o1", "inhibition at 1 µM": "≤ 5%"}
{"CHEMICAL_SMILES": "N#Cc1cccc(Nc2n[nH]c(NCc3ccc(O)cc3)c2C(N)=O)c1", "inhibition at 1 µM": "≥ 50%"}
{"CHEMICAL_SMILES": "NC(=O)c1c(Nc2cccnc2)n[nH]c1NCc1ccc[nH]1", "inhibition at 1 µM": "5 to 20%"}
{"CHEMICAL_SMILES": "CN(C)c1ccc(CNc2[nH]nc(Nc3cccnc3)c2C(N)=O)c2ccccc12", "inhibition at 1 µM": "20 to 50%"}

If you can, please state the reported inhibition at 1 µM value of N#Cc1c(Nc2cccc(Cl)c2)n[nH]c1NCc1ccc(-c2ccccn2)s1 . ≤ 5%

Would you kindly share the measured inhibition at 1 µM for CC1CCN(C2CCN(c3n[nH]c(NCc4ccc(O)cc4)c3C(N)=O)CC2)CC1 ? 20 to 50%

Any idea what inhibition at 1 µM was measured for NC(=O)c1c(Nc2ccc(-c3cc(CO)c4ccccc4n3)cc2)n[nH]c1NCc1ccc(O)cc1 ? ≥ 50%

Would you mind telling me what inhibition at 1 µM value was observed for COc1ccc(CNc2[nH]nc(Nc3cccc(Cl)c3)c2C#N)cc1F ? 5 to 20%

Quick one: inhibition at 1 µM of N#CCc1ccc(Nc2n[nH]c(NCc3ccc(O)cc3)c2C(N)=O)cc1 ? ≥ 50%

# query: inhibition at 1 µM of entry CC(C)c1ccc(Nc2n[nH]c(NCc3ccc(O)cc3)c2C(N)=O)cc1 20 to 50%

Recorded inhibition at 1 µM of Cn1nc(CSc2ccccc2)c(CNc2[nH]nc(Nc3cccc(Cl)c3)c2C#N)c1Cl , please. 5 to 20%

What value of inhibition at 1 µM has been recorded for this entry: COc1ccc(CNc2[nH]nc(Nc3cccc(Cl)c3)c2C(N)=O)c(C)c1 20 to 50%

Which inhibition at 1 µM is reported for this compound? NC(=O)c1c(Nc2ccc(NC(=O)c3sc4cc(F)ccc4c3Cl)cc2)n[nH]c1NCc1ccc(O)cc1 20 to 50%
